- assayedSystem: Sodium-dependent dopamine transporter (Homo sapiens)
- Sequence (Q01959 whole entry): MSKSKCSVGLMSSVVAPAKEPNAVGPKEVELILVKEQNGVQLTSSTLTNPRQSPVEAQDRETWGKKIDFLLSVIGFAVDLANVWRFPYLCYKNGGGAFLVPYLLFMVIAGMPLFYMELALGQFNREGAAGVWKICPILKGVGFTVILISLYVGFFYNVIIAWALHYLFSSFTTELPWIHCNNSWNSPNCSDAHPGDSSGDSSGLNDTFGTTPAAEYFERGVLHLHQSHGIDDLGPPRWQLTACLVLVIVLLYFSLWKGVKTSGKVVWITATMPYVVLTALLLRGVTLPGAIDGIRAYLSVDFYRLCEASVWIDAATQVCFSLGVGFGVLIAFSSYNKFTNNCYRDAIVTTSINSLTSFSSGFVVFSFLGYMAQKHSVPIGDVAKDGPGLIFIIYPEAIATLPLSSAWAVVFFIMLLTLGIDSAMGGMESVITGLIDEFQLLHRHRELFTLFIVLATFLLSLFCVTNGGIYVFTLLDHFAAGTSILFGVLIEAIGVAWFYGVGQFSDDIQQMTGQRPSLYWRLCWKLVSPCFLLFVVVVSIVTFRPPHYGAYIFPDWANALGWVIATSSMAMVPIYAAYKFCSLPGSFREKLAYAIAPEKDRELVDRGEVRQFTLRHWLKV
- assayNotes: Inhibition of human recombinant dopamine transporter
pIC50: −log10 of the molar value.
Assign label 1 to entries whose pIC50 meets or exceeds 7; assign label 0 to the rest.

N[C@H]1Cc2ccccc2N(c2ccc(Cl)c(Cl)c2)C1	label 0

QUERY: State whether the measured pIC50 reaches 7, counting equality as reaching it, for N[C@@H]1CCN(c2ccc(Cl)c(Cl)c2)c2ccccc21
RESULT: label 1

QUERY: State whether the measured pIC50 reaches 7, counting equality as reaching it, for NC1CCN(c2ccc(Cl)c(Cl)c2)c2ccccc21 (stereo not drawn)
RESULT: label 0

QUERY: State whether the measured pIC50 reaches 7, counting equality as reaching it, for CNC1CCN(c2ccc(Cl)c(Cl)c2)c2ccccc21 (stereo not drawn)
RESULT: label 1

QUERY: State whether the measured pIC50 reaches 7, counting equality as reaching it, for NC1Cc2ccccc2N(c2ccc(Cl)c(Cl)c2)C1 (stereo not drawn)
RESULT: label 0

QUERY: State whether the measured pIC50 reaches 7, counting equality as reaching it, for CN(C)C1CCN(c2ccc(Cl)c(Cl)c2)c2ccccc21 (stereo not drawn)
RESULT: label 0

QUERY: State whether the measured pIC50 reaches 7, counting equality as reaching it, for CN(C)[C@@H]1CCN(c2ccc(Cl)c(Cl)c2)c2ccccc21
RESULT: label 1

QUERY: State whether the measured pIC50 reaches 7, counting equality as reaching it, for CN(C)[C@H]1Cc2ccccc2N(c2ccc(Cl)c(Cl)c2)C1
RESULT: label 0

QUERY: State whether the measured pIC50 reaches 7, counting equality as reaching it, for CN[C@@H]1CCN(c2ccc(Cl)c(Cl)c2)c2ccccc21
RESULT: label 1

QUERY: State whether the measured pIC50 reaches 7, counting equality as reaching it, for CNC1Cc2ccccc2N(c2ccc(Cl)c(Cl)c2)C1 (stereo not drawn)
RESULT: label 0
